- Test Target: calf intestinal alkaline phosphatase (CIAP) (calf, UniProt P19111 20-506)
- Sequence (P19111 20-506): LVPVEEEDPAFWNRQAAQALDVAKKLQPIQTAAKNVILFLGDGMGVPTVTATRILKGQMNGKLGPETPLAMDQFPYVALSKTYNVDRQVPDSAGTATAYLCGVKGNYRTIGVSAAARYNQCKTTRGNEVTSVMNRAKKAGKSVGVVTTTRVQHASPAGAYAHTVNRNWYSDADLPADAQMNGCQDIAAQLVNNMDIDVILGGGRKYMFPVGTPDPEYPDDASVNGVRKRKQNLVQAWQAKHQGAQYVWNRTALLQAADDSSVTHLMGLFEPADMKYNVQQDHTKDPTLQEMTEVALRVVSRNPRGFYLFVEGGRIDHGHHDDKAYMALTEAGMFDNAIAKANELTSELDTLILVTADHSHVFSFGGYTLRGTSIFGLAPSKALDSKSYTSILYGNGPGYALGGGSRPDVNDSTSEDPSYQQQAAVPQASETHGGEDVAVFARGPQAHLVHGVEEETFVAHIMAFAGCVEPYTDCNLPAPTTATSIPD
- Test Method Notes: 32P-RNA binding assay; Selection buffer 20 mM HEPES pH 7.5, 150 mM NaCl, 5 mM MgCl2, room temperature; binding assay conditions not separately stated (refers to cited protocol)
- Conditions Used: protein: commercial; tags: biotinylated (Pierce 29339, 69 kDa); chain copies: 2; label: 32P; stem-loop, GGG/CCC closing stem
Recorded Endpoint: Kd
Report field: quantity (unit follows the number).

// Input: minimized aptamer variant 3.1 (structured_RNA) RNA: GGGUAGAUGCUGUAUAUAGCGAACUCAACAUAAGGUAUAAUUACAAUUUCUACCC . Output its Kd only.
6.7 nM
